Ref: the Immune Epitope Database (IEDB)

Target: HLA-A*32:07
Assay: IEDB peptide-MHC binding, purified MHC/competitive/fluorescence; filed as Kd, often an IC50 or EC50 that approximates it; bounds were set here for any values at or beyond the usual limits of such assays
Details: source organism: Salmonella enterica subsp. enterica serovar Typhi
pKd: −log10 of the molar value.
parameter: pKd

{"columns": ["sequence.record", "parameter", "assay.value"],
 "data": [
  ["MTMLTRWKI", "pKd", 7.11]
]}

====

Target: HLA-A*01:01
Assay: IEDB peptide-MHC binding, purified MHC/direct/fluorescence; filed as Kd, often an IC50 or EC50 that approximates it; bounds were set here for any values at or beyond the usual limits of such assays
Details: source organism: Vibrio parahaemolyticus
pKd: −log10 of the molar value.

{"columns": ["sequence.record", "assay.target", "pKd"],
 "data": [
  ["DMRKRIEAF", "HLA-A*01:01", "≤ 4.70"]
]}

====

Molecular target: HLA-A*69:01
Experiment: IEDB peptide-MHC binding, purified MHC/competitive/fluorescence; filed as Kd, often an IC50 or EC50 that approximates it; bounds were set here for any values at or beyond the usual limits of such assays
Details: source organism: Pseudomonas aeruginosa UCBPP-PA14
parameter: Kd

{"columns": ["sequence.record", "assay.target", "assay.value"],
 "data": [
  ["AVFDGCVVY", "HLA-A*69:01", "≥ 20 µM"]
]}

====

Molecular target: HLA-A*26:01
Assay: IEDB peptide-MHC binding, purified MHC/competitive/radioactivity; filed as Kd, often an IC50 or EC50 that approximates it; bounds were set here for any values at or beyond the usual limits of such assays
Conditions: source organism: Dengue virus 2 Jamaica/1409/1983

{"columns": ["sequence.record", "Kd (nM)"],
 "data": [
  ["GVVTRSGAY", 836]
]}

====

Biological target: HLA-A*30:01
Assay: IEDB peptide-MHC binding, purified MHC/competitive/radioactivity; filed as Kd, often an IC50 or EC50 that approximates it; bounds were set here for any values at or beyond the usual limits of such assays
Details: source organism: Dengue virus 4 Philippines/H241/1956

{"columns": ["sequence.record", "Kd"],
 "data": [
  ["RNRVSTPQG", "132 nM"],
  ["VLTLATGPVL", "1500 nM"],
  ["RVLSIPPTA", "118 nM"],
  ["KTKRILPSI", "6.75 nM"]
]}

====

Biological target: HLA-A*01:01
Test: IEDB peptide-MHC binding, purified MHC/direct/fluorescence; filed as Kd, often an IC50 or EC50 that approximates it; bounds were set here for any values at or beyond the usual limits of such assays
Conditions: source organism: Zaire ebolavirus

{"columns": ["sequence.record", "assay.target", "Kd (nM)"],
 "data": [
  ["ATEDPSSGY", "HLA-A*01:01", 438]
]}

====

Molecular target: HLA-A*02:01
Test: IEDB peptide-MHC binding, purified MHC/competitive/fluorescence; filed as Kd, often an IC50 or EC50 that approximates it; bounds were set here for any values at or beyond the usual limits of such assays
Conditions: source organism: SARS-CoV1
parameter: Kd (nM)

{"columns": ["sequence.record", "parameter", "unit.string", "assay.value"],
 "data": [
  ["GMSRIGMEV", "Kd", "nM", 1.6]
]}

====

Biological target: HLA-B*27:05
Test: IEDB peptide-MHC binding, purified MHC/direct/fluorescence; filed as Kd, often an IC50 or EC50 that approximates it; bounds were set here for any values at or beyond the usual limits of such assays
Conditions: source organism: Shigella flexneri

{"columns": ["sequence.record", "Kd"],
 "data": [
  ["LSSIGIPAY", "≥ 20 µM"]
]}

====

Biological target: HLA-A*30:01
Experiment: IEDB peptide-MHC binding, purified MHC/competitive/fluorescence; filed as Kd, often an IC50 or EC50 that approximates it; bounds were set here for any values at or beyond the usual limits of such assays
Details: source organism: Nostoc punctiforme PCC 73102
parameter: Kd

{"columns": ["sequence.record", "assay.value"],
 "data": [
  ["WFSSGLWPF", "≥ 20 µM"]
]}

====

Biological target: HLA-A*31:01
Assay: IEDB peptide-MHC binding, purified MHC/direct/fluorescence; filed as Kd, often an IC50 or EC50 that approximates it; bounds were set here for any values at or beyond the usual limits of such assays
Details: source organism: Influenza A virus (A/camel/Mongolia/1982(H1N1))
pKd: −log10 of the molar value.

{"columns": ["sequence.record", "pKd"],
 "data": [
  ["HIPEVCLKW", "≤ 4.70"]
]}

====

Biological target: HLA-B*08:01
Assay: IEDB peptide-MHC binding, purified MHC/direct/fluorescence; filed as Kd, often an IC50 or EC50 that approximates it; bounds were set here for any values at or beyond the usual limits of such assays
Conditions: source organism: Influenza A virus (A/chicken/Vietnam/5/2003(H5N1))
parameter: Kd

{"columns": ["sequence.record", "assay.value"],
 "data": [
  ["QTYDWTLNR", "≥ 20 µM"]
]}

====

Target: HLA-B*40:01
Assay: IEDB peptide-MHC binding, purified MHC/competitive/fluorescence; filed as Kd, often an IC50 or EC50 that approximates it; bounds were set here for any values at or beyond the usual limits of such assays
Details: source organism: Corynebacterium glutamicum R
pKd: −log10 of the molar value.
parameter: pKd

{"columns": ["sequence.record", "assay.target", "parameter", "assay.value"],
 "data": [
  ["RYDDGQSIY", "HLA-B*40:01", "pKd", "≤ 4.70"]
]}

====

Target: HLA-B*73:01
Assay: IEDB peptide-MHC binding, purified MHC/competitive/fluorescence; filed as Kd, often an IC50 or EC50 that approximates it; bounds were set here for any values at or beyond the usual limits of such assays
Details: source organism: Stutzerimonas stutzeri
parameter: Kd

{"columns": ["sequence.record", "assay.value"],
 "data": [
  ["GRGQILLGK", "≥ 20 µM"]
]}

====

Molecular target: HLA-A*29:02
Assay: IEDB peptide-MHC binding, purified MHC/competitive/fluorescence; filed as Kd, often an IC50 or EC50 that approximates it; bounds were set here for any values at or beyond the usual limits of such assays
Details: source organism: Entamoeba histolytica HM-1:IMSS
pKd: −log10 of the molar value.
parameter: pKd

{"columns": ["sequence.record", "assay.value"],
 "data": [
  ["LICYQIEYI", "≤ 4.70"]
]}

====

Target: HLA-A*32:01
Test: IEDB peptide-MHC binding, purified MHC/competitive/radioactivity; filed as Kd, often an IC50 or EC50 that approximates it; bounds were set here for any values at or beyond the usual limits of such assays
Settings: source organism: Vaccinia virus Copenhagen
parameter: Kd

{"columns": ["sequence.record", "parameter", "assay.value"],
 "data": [
  ["KTMAVTYEL", "Kd", "0.578 nM"],
  ["RQYMFYKIF", "Kd", "19.3 nM"]
]}

====

Target: HLA-B*07:02
Test: IEDB peptide-MHC binding, purified MHC/competitive/fluorescence; filed as Kd, often an IC50 or EC50 that approximates it; bounds were set here for any values at or beyond the usual limits of such assays
Conditions: source organism: Corynebacterium glutamicum R
pKd: −log10 of the molar value.

{"columns": ["sequence.record", "pKd"],
 "data": [
  ["RYDDGQSIY", "≤ 4.70"]
]}

====

Target: HLA-A*26:01
Assay: IEDB peptide-MHC binding, purified MHC/direct/fluorescence; filed as Kd, often an IC50 or EC50 that approximates it; bounds were set here for any values at or beyond the usual limits of such assays
Details: source organism: Orthohantavirus negraense
pKd: −log10 of the molar value.
parameter: pKd

{"columns": ["sequence.record", "parameter", "assay.value"],
 "data": [
  ["NIYETEFFM", "pKd", 5.95]
]}

====

Molecular target: HLA-A*03:01
Test: IEDB peptide-MHC binding, purified MHC/competitive/fluorescence; filed as Kd, often an IC50 or EC50 that approximates it; bounds were set here for any values at or beyond the usual limits of such assays
Conditions: source organism: Entamoeba dispar SAW760
pKd: −log10 of the molar value.
parameter: pKd

{"columns": ["sequence.record", "assay.target", "parameter", "assay.value"],
 "data": [
  ["KGFFRVFKK", "HLA-A*03:01", "pKd", 8.31]
]}

====

Target: HLA-B*48:01
Test: IEDB peptide-MHC binding, purified MHC/direct/fluorescence; filed as Kd, often an IC50 or EC50 that approximates it; bounds were set here for any values at or beyond the usual limits of such assays
Details: source organism: Aracatuba virus

{"columns": ["sequence.record", "assay.target", "Kd"],
 "data": [
  ["LLLLISLVY", "HLA-B*48:01", "≥ 20 µM"]
]}

====

Biological target: HLA-B*58:01
Assay: IEDB peptide-MHC binding, purified MHC/direct/fluorescence; filed as Kd, often an IC50 or EC50 that approximates it; bounds were set here for any values at or beyond the usual limits of such assays
Details: source organism: Tai Forest virus - Cote d'Ivoire, Cote d'Ivoire, 1994
pKd: −log10 of the molar value.
parameter: pKd

{"columns": ["sequence.record", "assay.value"],
 "data": [
  ["FAEGVIAFL", "≤ 4.70"]
]}
